- TESTED_TARGET: active p38 alpha enzyme (Upstate Biotechnology) (Homo sapiens)
- Construct: purchased Upstate Biotechnology
- TEST_NAME: p38α biochemical assay (ATP turnover, luminescent detection, Cambrex PKlight)
- ASSAY_CONTEXT: p38α biochemical assay, Table 1 Biological Activity
pIC50: −log10 of the molar value.
READOUT_KIND: pIC50

The following molecules have reported results that may help.
Cc1cc(C(=O)N2CCN(Cc3nc(-c4ccc(F)cc4)c(-c4nc(C(=O)NC(C)C)cs4)o3)CC2)n[nH]1 [Example 353] : ≥ 6.00
Cc1cccc(C(=O)NCc2nc(-c3ccc(F)cc3)c(-c3nc(C(=O)NC(C)C)cs3)o2)c1[N+](=O)[O-] [Example 221] : ≥ 6.00
CC(C)NC(=O)c1csc(-c2oc(CNC(=O)c3ccc(F)c([N+](=O)[O-])c3)nc2-c2ccc(F)cc2)n1 [Example 237] : ≥ 6.00
CC(C)NC(=O)c1csc(-c2oc(CNC(=O)c3ccc(Oc4cccc(O)c4)cc3)nc2-c2ccc(F)cc2)n1 [Example 312] : ≥ 6.00
CC(C)NC(=O)c1csc(-c2oc(CN3CCN(C(=O)c4cccc(Br)n4)CC3)nc2-c2ccc(F)cc2)n1 [Example 513] : < 6.00
COc1ccc(C(=O)NCc2nc(-c3ccc(F)cc3)c(-c3nc(C(=O)NC(C)C)cs3)o2)c(O)c1 [Example 188] : < 6.00

*Q* Look up and report measured pIC50 (active p38 alpha enzyme (Upstate Biotechnology) (Homo sapiens)) for the following molecule: CC(C)NC(=O)c1csc(-c2oc(CNC(=O)c3c(F)cccc3Cl)nc2-c2ccc(F)cc2)n1 [Example 200]
*A* ≥ 6.00

====

- TESTED_TARGET: active p38 alpha enzyme (Upstate Biotechnology) (Homo sapiens, UniProt Q16539)
- Construct: purchased Upstate Biotechnology
- Sequence (Q16539 whole entry): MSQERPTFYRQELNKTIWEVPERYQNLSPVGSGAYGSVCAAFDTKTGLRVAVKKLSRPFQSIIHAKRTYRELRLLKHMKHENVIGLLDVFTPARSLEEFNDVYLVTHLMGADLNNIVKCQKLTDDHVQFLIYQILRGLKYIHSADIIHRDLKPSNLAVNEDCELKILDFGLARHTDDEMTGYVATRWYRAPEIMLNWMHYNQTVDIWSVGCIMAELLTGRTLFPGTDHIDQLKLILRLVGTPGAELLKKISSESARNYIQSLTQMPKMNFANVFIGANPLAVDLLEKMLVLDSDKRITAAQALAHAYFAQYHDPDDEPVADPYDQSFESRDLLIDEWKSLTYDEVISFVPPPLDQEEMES
- TEST_NAME: p38α biochemical assay (ATP turnover, luminescent detection, Cambrex PKlight)
- ASSAY_CONTEXT: p38α biochemical assay, Table 1 Biological Activity
pIC50: −log10 of the molar value.
Reported pIC50 values for a set of compounds

The following compounds have reported results that may help.
CC(C)NC(=O)c1csc(-c2c(-c3ccc(F)cc3)noc2CNC(=O)Cc2ccc(C(F)(F)F)cc2)n1 : < 6.00
CC(CC(=O)N1CCN(Cc2nc(-c3ccc(F)cc3)c(-c3nc(C(=O)NC(C)C)cs3)o2)CC1)CC(C)(C)C (stereo not drawn) : ≥ 6.00
CC(C)NC(=O)c1csc(-c2oc(CNC(=O)C(C)c3ccc(O)cc3)nc2-c2ccc(F)cc2)n1 (stereo not drawn) : ≥ 6.00

*Q* Quickly give me recorded pIC50 for CC(C)NC(=O)c1csc(-c2oc(CNC(=O)c3ccccc3Cl)nc2-c2ccc(F)cc2)n1
*A* ≥ 6.00

*Q* Quickly give me recorded pIC50 for CC(C)NC(=O)c1csc(-c2oc(CNC(=O)c3cnc(O)c(Cl)c3)nc2-c2ccc(F)cc2)n1
*A* ≥ 6.00

*Q* Quickly give me recorded pIC50 for CC(C)NC(=O)c1csc(-c2c(-c3ccc(F)cc3)n[nH]c2C2CCN(C(=O)CO)CC2)n1
*A* ≥ 6.00

*Q* Quickly give me recorded pIC50 for CC(C)NC(=O)c1csc(-c2c(-c3ccc(F)cc3)noc2CNC(=O)C2CCCO2)n1 (stereo not drawn)
*A* < 6.00

*Q* Quickly give me recorded pIC50 for CNC(=O)n1ccc(-c2c(-c3ccc(Cl)cc3)noc2C)n1
*A* < 6.00

*Q* Quickly give me recorded pIC50 for CC(C)NC(=O)c1csc(-c2c(-c3ccc(F)cc3)noc2CNC(=O)C(F)(F)F)n1
*A* ≥ 6.00

*Q* Quickly give me recorded pIC50 for Cc1nc(-c2ccc(F)cc2)c(-c2nc(C(N)=O)cs2)o1
*A* < 6.00

*Q* Quickly give me recorded pIC50 for CC(C)NC(=O)c1csc(-c2oc(CNC(=O)c3cc(F)cc(F)c3)nc2-c2ccc(F)cc2)n1
*A* < 6.00

*Q* Quickly give me recorded pIC50 for CC(C)NC(=O)c1csc(-c2c(-c3ccc(F)cc3)noc2CNC(=O)CC2Cc3ccccc3C2)n1
*A* < 6.00

*Q* Quickly give me recorded pIC50 for CC(C)NC(=O)c1csc(-c2oc(CN3CCN(C(=O)c4ccc(F)cc4Cl)CC3)nc2-c2ccc(F)cc2)n1
*A* < 6.00

*Q* Quickly give me recorded pIC50 for CC(C)NC(=O)c1csc(-c2oc(CNC(=O)C(NC(=O)OC(C)(C)C)C(C)C)nc2-c2ccc(F)cc2)n1 (stereo not drawn) [Example 298]
*A* < 6.00
